# Tested on: Staphylococcus aureus
# test: Antibacterial activity against Staphylococcus aureus measured after 24 hrs
# Assay type: functional
observation-type: MIC (µg/mL)
Give the value in µg/mL but do not write µg/mL after it.

The reported MIC of the molecule C=C1CCC[C@]2(C)c3ccc(C(C)C)c(OC)c3CC[C@@H]12 was 100

The reported MIC of the molecule COC(=O)[C@]1(C)CCC[C@]2(C)c3ccc(C(C)C)c(NC(=O)Cn4cc(-c5ccc(Br)cc5)nn4)c3CC[C@@H]12 was 25

The reported MIC of the molecule CCOCOC[C@]12CCC3=C(COC3=O)[C@@H]1CCc1c2ccc(C(C)C)c1OC was 100

The reported MIC of the molecule COC(=O)[C@]1(C)CCC[C@]2(C)c3ccc(C(C)C)c(NC(=O)Cn4cc(-c5ccc(C#N)cc5)nn4)c3CC[C@@H]12 was 25

The reported MIC of the molecule COC(=O)[C@]1(C)CCC[C@]2(C)c3ccc(C(C)C)c(NC(=O)Cn4cc(-c5cccnc5)nn4)c3CC[C@@H]12 was 3.1

The reported MIC of the molecule COC(=O)[C@]1(C)CCC[C@]2(C)c3ccc(C(C)C)c(OC)c3CC[C@@H]12 was 75

The reported MIC of the molecule COc1c(C(C)C)ccc2c1CC[C@H]1C(=O)C(=C(SC)SC)CC[C@]21CO was 25

The reported MIC of the molecule COC(=O)[C@]1(C)CCC[C@]2(C)c3ccc(C(C)C)c(NC(=O)Cn4cc(CNC(=O)OC(C)(C)C)nn4)c3CC[C@@H]12 was 75

The reported MIC of the molecule COC(=O)[C@]1(C)CCC[C@]2(C)c3ccc(C(C)C)c(NC(=O)Cn4cc(-c5ccc(OC(F)(F)F)cc5)nn4)c3CC[C@@H]12 was 25

The reported MIC of the molecule COC(=O)[C@]1(C)CCC[C@]2(C)c3ccc(C(C)C)c(N)c3CC[C@@H]12 was 25

The reported MIC of the molecule COC(=O)[C@]1(C)CCC[C@]2(C)c3ccc(C(C)C)c(NC(=O)Cn4cc(-c5ccccc5F)nn4)c3CC[C@@H]12 was 25

The reported MIC of the molecule COC(=O)[C@]1(C)CCC[C@]2(C)c3ccc(C(C)C)c(NC(=O)Cn4cc(-c5cccs5)nn4)c3CC[C@@H]12 was 12.5

The reported MIC of the molecule COC(=O)[C@]1(C)CCC[C@]2(C)c3ccc(C(C)C)c(NC(=O)Cn4cc(CCO)nn4)c3CC[C@@H]12 was 25

The reported MIC of the molecule COC(=O)c1nnn(CC(=O)Nc2c(C(C)C)ccc3c2CC[C@H]2[C@](C)(C(=O)OC)CCC[C@]32C)c1C(=O)OC was 25

The reported MIC of the molecule CCOCOC[C@]12CCC(=C(SC)SC)C(=O)[C@@H]1CCc1c2ccc(C(C)C)c1OC was 6.3

The reported MIC of the molecule COC(=O)[C@]1(C)CCC[C@]2(C)c3ccc(C(C)C)c(NC(=O)Cn4cc(-c5cccc(OC)c5)nn4)c3CC[C@@H]12 was 50
